The reported numbers originate from ChEMBL document CHEMBL1221343.

Assay: Cytotoxicity against human NFF cells at 100 uM
Assay type: cell-based
Settings: read-out: INH
measured-endpoint: cytotoxicity at 100 µM (%)
Write the number in % without appending the unit.

Consider the worked cases shown below.
> print(dat)
                               test.smiles  measured
1  COc1c(Br)c(Br)cc2c(=O)cc(C(=O)O)[nH]c12        68
2      COc1cc(Br)cc2c(=O)cc(C(=O)O)[nH]c12        58
3              O=C(O)c1cc(O)c2ccc(Br)cc2n1        57

# ---- query molecule ----
The molecule listed as O=C(O)c1cc(=O)c2cc(Br)c(Br)cc2[nH]1 shows cytotoxicity at 100 µM equal to 66

----------
System: Candida albicans
Assay: Antimicrobial activity against Candida albicans ATCC 10231 at 0.1 to 10 mM after 20 hrs by CLSI broth microdilution method
Type: functional, organism-based
The source made the active and inactive calls. No cut-off for these calls is given here.
measured-endpoint: Activity

> print(dat)
                               test.smiles  measured.endpoint  measured
1      O=C(O)c1cc(=O)c2cc(Br)c(Br)cc2[nH]1           Activity  inactive
2      COc1cc(Br)cc2c(=O)cc(C(=O)O)[nH]c12           Activity  inactive
3              O=C(O)c1cc(O)c2ccc(Br)cc2n1           Activity  inactive
4  COc1c(Br)c(Br)cc2c(=O)cc(C(=O)O)[nH]c12           Activity  inactive

----------
Tested on: Staphylococcus aureus
Test: Antimicrobial activity against multidrug-resistant Staphylococcus aureus ATCC 43300 at 0.1 to 10 mM after 20 hrs by CLSI broth microdilution method
Type: functional, organism-based
The source made the active and inactive calls. The calls are words filed in the database; no cut-off is given here.
measured-endpoint: Activity

> print(dat)
                               test.smiles  measured.endpoint  measured
1      O=C(O)c1cc(=O)c2cc(Br)c(Br)cc2[nH]1           Activity  inactive
2              O=C(O)c1cc(O)c2ccc(Br)cc2n1           Activity  inactive
3  COc1c(Br)c(Br)cc2c(=O)cc(C(=O)O)[nH]c12           Activity  inactive
4      COc1cc(Br)cc2c(=O)cc(C(=O)O)[nH]c12           Activity  inactive
